Listing: peptide exchange yield of selected binders
- measurementTarget: T1, HLA-A*02:01 (human)
- T1 construct: Peptide-receptive MHC monomer made by UV cleavage of a UV-sensitive peptide
- procedureText: UV-ligand exchange, anti-b2m ELISA; exchange yield grade (+ >10%, ++ >20%, +++ >50, ++++ >75%)

Example results:
{"columns": ["binder", "assayResult"],
 "data": [
  ["SLQDTKITL", "50 to 75%"],
  ["ALAAELNQL", "50 to 75%"]
]}

Lookup: Dear colleague, I am looking for the recorded peptide exchange yield of the following binder: `FLNQIYTQL`
Found: > 75%

Lookup: Dear colleague, I am looking for the recorded peptide exchange yield of the following binder: `YLPPTDPRMSV`
Found: > 75%
